These entries and their values trace back to paper PMC2756588.

Target: T1, Lsb4, P32793
T1 sequence (P32793 402-468, looked up): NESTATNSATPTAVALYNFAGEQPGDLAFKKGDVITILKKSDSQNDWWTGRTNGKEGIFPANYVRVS
Assay: SPOT array
Conditions: median of control spots 397
Observable: SPOT intensity

# Binder, Reported value
rows = [
    ("FPPKRKPLLRPQRSD", 81),
    ("DFTLPPPPPPPGLDE", 0),
    ("RRSKSLPITPKSIFN", 0),
    ("LKVTPGRRAPTISKI", 7),
    ("AKDLIVPRRPEWNEG", 768),
    ("VQPTAAPATPPRHIS", 251),
    ("SGVRLPAPPPPPRRG", 0),
]
